Tested System: P-gp (MDR1) (Homo sapiens, UniProt P08183)
Sequence (P08183 whole entry): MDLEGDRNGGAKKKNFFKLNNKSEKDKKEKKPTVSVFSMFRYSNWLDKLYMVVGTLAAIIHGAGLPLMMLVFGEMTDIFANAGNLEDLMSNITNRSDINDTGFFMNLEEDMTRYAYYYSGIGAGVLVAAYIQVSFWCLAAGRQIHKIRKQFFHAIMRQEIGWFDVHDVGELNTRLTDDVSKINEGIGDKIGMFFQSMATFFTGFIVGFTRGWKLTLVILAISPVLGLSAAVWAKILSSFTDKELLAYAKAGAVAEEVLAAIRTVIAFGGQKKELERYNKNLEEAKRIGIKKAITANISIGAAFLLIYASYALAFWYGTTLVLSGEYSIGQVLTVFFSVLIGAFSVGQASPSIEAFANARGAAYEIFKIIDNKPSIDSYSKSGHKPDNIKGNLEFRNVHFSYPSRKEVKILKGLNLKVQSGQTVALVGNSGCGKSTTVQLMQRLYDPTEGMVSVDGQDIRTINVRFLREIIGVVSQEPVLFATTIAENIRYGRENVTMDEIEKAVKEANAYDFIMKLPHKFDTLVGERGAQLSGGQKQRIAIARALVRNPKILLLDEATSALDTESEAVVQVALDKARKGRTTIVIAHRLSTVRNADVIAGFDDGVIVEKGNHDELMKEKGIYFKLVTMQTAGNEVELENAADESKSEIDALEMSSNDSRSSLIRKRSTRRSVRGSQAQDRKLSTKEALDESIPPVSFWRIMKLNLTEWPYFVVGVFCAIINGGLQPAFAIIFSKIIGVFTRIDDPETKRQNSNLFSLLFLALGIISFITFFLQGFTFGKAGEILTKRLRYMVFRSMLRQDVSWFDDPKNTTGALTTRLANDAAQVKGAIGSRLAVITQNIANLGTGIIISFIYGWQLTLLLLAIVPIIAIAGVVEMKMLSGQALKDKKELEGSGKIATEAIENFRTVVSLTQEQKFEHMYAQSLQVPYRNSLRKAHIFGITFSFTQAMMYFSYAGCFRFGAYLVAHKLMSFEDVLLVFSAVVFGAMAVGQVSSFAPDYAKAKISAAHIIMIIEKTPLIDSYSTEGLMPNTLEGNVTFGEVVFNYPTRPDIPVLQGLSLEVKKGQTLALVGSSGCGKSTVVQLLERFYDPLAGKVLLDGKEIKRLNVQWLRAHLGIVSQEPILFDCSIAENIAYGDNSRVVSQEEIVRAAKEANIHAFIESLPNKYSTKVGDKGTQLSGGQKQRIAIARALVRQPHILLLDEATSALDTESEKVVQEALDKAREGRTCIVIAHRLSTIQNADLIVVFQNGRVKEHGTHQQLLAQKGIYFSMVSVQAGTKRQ
Assay Procedure: Bi-directional transport (monolayer efflux) study across MDCK-MDR1 cell monolayers
Measurement Context: human, MDCK-MDR1, pH 6, Papp,B→A, pHext 6 (ISO-pH), HPS conditions, recovery-corrected mean ± SD, n = 3
Endpoint Name: Papp B→A

Documented Papp B→A of `COc1cccc2c1C(=O)c1c(O)c3c(c(O)c1C2=O)C[C@@](O)(C(=O)CO)C[C@@H]3O[C@H]1C[C@H](N)[C@H](O)[C@H](C)O1` : 0.23 ×10⁻⁶ cm/s

---

Tested System: P-gp (MDR1) (Homo sapiens, UniProt P08183)
Assay Procedure: Bi-directional transport (monolayer efflux) study across MDCK-MDR1 cell monolayers
Measurement Context: human, MDCK-MDR1 cell monolayers, pH 7, Recovery, pHext 7 (ISO-pH), HPS conditions
Endpoint Name: recovery

recovery measured on `COc1cccc2c1C(=O)c1c(O)c3c(c(O)c1C2=O)C[C@@](O)(C(=O)CO)C[C@@H]3O[C@H]1C[C@H](N)[C@H](O)[C@H](C)O1` = 87.8 to 93.1%

---

Tested System: P-gp (MDR1) (Homo sapiens)
Assay Procedure: in vitro
Measurement Context: MDCK-MDR1, pH 7.4, Papp,B→A, LPS: low-porosity filter, stirred, pH 7.4 ISO-pH, 12 μM (loperamide 10 μM), recovery-corrected mean ± SD
Endpoint Name: Papp B→A (×10⁻⁶ cm/s)
Note: unit ×10⁻⁶ cm/s is implicit; provide only the numeric part.

// CN(C)C(=O)C(CCN1CCC(O)(c2ccc(Cl)cc2)CC1)(c1ccccc1)c1ccccc1 [Loperamide, loperamide] : Papp B→A value = 15.9

---

Tested System: P-gp (MDR1) (Homo sapiens, UniProt P08183)
Assay Procedure: in vitro
Measurement Context: MDCK-MDR1, pH 7.4, Papp,B→A, HPU: high-porosity filter, unstirred, pH 7.4 ISO-pH, 12 μM (loperamide 10 μM), recovery-corrected mean ± SD
Endpoint Name: Papp B→A (×10⁻⁶ cm/s)
Record the value in ×10⁻⁶ cm/s, omitting the unit from your answer.

Entry CN(C)C(=O)C(CCN1CCC(O)(c2ccc(Cl)cc2)CC1)(c1ccccc1)c1ccccc1 [Loperamide, loperamide] , P-gp (MDR1) (Homo sapiens, UniProt P08183) data, Papp B→A value: 29.2

---

Tested System: P-gp (MDR1) (Homo sapiens, UniProt P08183)
Assay Procedure: in vitro
Measurement Context: MDCK-MDR1, pH 7.4, ER (Papp,B→A over Papp,A→B), HPS: high-porosity filter, stirred, pH 7.4 ISO-pH, 12 μM (loperamide 10 μM)
Endpoint Name: efflux ratio

Simply: CN(C)C(=O)C(CCN1CCC(O)(c2ccc(Cl)cc2)CC1)(c1ccccc1)c1ccccc1 [Loperamide, loperamide] , P-gp (MDR1) (Homo sapiens, UniProt P08183), efflux ratio = 2.7

---

Tested System: UniProtKB P08183
Assay Procedure: in vitro
Measurement Context: MDCK-MDR1, pH 7.4, Papp,A→B, HPS: high-porosity filter, stirred, pH 7.4 ISO-pH, 12 μM (loperamide 10 μM), recovery-corrected mean ± SD
Endpoint Name: Papp A→B (×10⁻⁶ cm/s)
Give your result in ×10⁻⁶ cm/s as a bare value.

The value of Papp A→B measured for the molecule CN(C)C(=O)C(CCN1CCC(O)(c2ccc(Cl)cc2)CC1)(c1ccccc1)c1ccccc1 [Loperamide, loperamide] turned out to be 46.7

---

Tested System: P-gp (MDR1) (Homo sapiens)
Assay Procedure: in vitro
Measurement Context: pH 7.4, Recovery, HPU: high-porosity filter, unstirred, pH 7.4, MDCK-MDR1, 12 μM (loperamide 10 μM)
Endpoint Name: recovery

Reported recovery (P-gp (MDR1) (Homo sapiens)) for entry CN(C)C(=O)C(CCN1CCC(O)(c2ccc(Cl)cc2)CC1)(c1ccccc1)c1ccccc1 [Loperamide, loperamide] is 62.3 to 81.3%

---

Tested System: P-gp (MDR1) (Homo sapiens, UniProt P08183)
Assay Procedure: in vitro
Measurement Context: MDCK-MDR1, pH 7.4, ER (Papp,B→A over Papp,A→B), LPS: low-porosity filter, stirred, pH 7.4 ISO-pH, 12 μM (loperamide 10 μM)
Endpoint Name: efflux ratio
Form rule: numeric answer, no unit written next to it.

CN(C)C(=O)C(CCN1CCC(O)(c2ccc(Cl)cc2)CC1)(c1ccccc1)c1ccccc1 [Loperamide, loperamide] has a reported efflux ratio of 3.2

---

Tested System: UniProt:P08183
Assay Procedure: in vitro
Measurement Context: pH 7.4, Recovery, LPS: low-porosity filter, stirred, pH 7.4, MDCK-MDR1, 12 μM (loperamide 10 μM)
Endpoint Name: recovery

Input CN(C)C(=O)C(CCN1CCC(O)(c2ccc(Cl)cc2)CC1)(c1ccccc1)c1ccccc1 [Loperamide, loperamide] . Output recovery: 69.2 to 86.1%

---

Tested System: P-gp (MDR1) (Homo sapiens, UniProt P08183)
Assay Procedure: in vitro
Measurement Context: pH 7.4, Recovery, HPS: high-porosity filter, stirred, pH 7.4, MDCK-MDR1, 12 μM (loperamide 10 μM)
Endpoint Name: recovery

Item: CN(C)C(=O)C(CCN1CCC(O)(c2ccc(Cl)cc2)CC1)(c1ccccc1)c1ccccc1 [Loperamide, loperamide] | recovery: 75 to 88.1%

---

Tested System: UniProt:P08183
Assay Procedure: Bi-directional transport (monolayer efflux) study across MDCK-MDR1 cell monolayers
Measurement Context: human, MDCK-MDR1 cell monolayers, pH 6, Recovery, pHext 6 (ISO-pH), HPS conditions
Endpoint Name: recovery

Measured recovery, COc1cccc2c1C(=O)c1c(O)c3c(c(O)c1C2=O)C[C@@](O)(C(=O)CO)C[C@@H]3O[C@H]1C[C@H](N)[C@H](O)[C@H](C)O1 [Doxorubicin, doxorubicin] : 89.3 to 95.3%

---

Tested System: P-gp (MDR1) (Homo sapiens, UniProt P08183)
Assay Procedure: in vitro
Measurement Context: MDCK-MDR1, pH 7.4, Papp,A→B, HPU: high-porosity filter, unstirred, pH 7.4 ISO-pH, 12 μM (loperamide 10 μM), recovery-corrected mean ± SD
Endpoint Name: Papp A→B (×10⁻⁶ cm/s)
Output spec: scalar in ×10⁻⁶ cm/s, unitless text.

// field: Papp A→B; key: CN(C)C(=O)C(CCN1CCC(O)(c2ccc(Cl)cc2)CC1)(c1ccccc1)c1ccccc1 [Loperamide, loperamide] ; value = 9.8

Numbers sourced from paper PMC11154460.
